Reported EC50 (FFC) values follow for various binders
- study_target: insulin receptor on mouse adipocytes (mouse, UniProt P15208 28-1372)
- Sequence (P15208 28-1372): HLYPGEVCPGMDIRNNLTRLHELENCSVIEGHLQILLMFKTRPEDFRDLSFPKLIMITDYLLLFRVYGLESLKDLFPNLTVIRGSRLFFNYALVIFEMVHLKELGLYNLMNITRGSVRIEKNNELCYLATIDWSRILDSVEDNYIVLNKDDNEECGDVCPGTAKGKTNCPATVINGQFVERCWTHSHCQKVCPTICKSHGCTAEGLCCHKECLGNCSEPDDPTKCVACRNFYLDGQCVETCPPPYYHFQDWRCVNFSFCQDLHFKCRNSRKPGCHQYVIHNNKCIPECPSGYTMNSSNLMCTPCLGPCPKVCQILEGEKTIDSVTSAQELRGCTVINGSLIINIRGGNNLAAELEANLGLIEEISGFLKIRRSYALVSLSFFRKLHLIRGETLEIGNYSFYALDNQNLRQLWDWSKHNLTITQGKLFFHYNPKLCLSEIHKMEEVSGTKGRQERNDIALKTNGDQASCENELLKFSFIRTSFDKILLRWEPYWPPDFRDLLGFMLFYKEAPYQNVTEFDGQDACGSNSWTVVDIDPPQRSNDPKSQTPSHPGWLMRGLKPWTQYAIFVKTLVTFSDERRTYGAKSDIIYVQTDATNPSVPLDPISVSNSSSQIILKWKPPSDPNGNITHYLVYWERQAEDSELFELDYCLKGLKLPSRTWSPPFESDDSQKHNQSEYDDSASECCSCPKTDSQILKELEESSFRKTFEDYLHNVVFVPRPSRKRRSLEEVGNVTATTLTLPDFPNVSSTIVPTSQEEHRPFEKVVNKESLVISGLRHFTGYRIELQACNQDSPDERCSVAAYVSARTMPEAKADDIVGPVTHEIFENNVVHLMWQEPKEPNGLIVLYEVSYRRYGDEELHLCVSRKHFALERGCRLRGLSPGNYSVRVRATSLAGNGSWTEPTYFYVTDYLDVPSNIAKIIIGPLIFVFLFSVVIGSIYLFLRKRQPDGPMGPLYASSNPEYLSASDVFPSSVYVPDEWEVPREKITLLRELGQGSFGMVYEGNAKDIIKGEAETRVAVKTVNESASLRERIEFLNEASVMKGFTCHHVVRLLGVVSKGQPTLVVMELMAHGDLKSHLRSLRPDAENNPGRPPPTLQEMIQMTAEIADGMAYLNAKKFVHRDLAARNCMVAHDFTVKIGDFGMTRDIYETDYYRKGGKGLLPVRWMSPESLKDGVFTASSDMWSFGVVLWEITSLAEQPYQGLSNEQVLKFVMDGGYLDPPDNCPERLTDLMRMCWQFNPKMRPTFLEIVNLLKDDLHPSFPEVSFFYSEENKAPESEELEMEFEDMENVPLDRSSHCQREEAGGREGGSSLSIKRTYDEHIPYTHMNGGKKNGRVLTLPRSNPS
- experiment_description: cell-based or functional assay
Ends that are not written are not given here.
Your answer is read as nM, so omit the unit and give the number.

Answered examples (5):
>  <binder>
HELEEEWKRIECELWGRGCPSEDFYDWFEAQLHA [618]

>  <EC50 (FFC) [nM]>
4.6

$$$$
>  <binder>
{MeO‑PEG5000}-SLEEEWAQIECEVYGRGCPSESFYDWFERQL (cysteine pairing not given here) [S660]

>  <EC50 (FFC) [nM]>
2

$$$$
>  <binder>
SLEEEWAQVECEVYGRCPSESFYDWFERQL [682]

>  <EC50 (FFC) [nM]>
7.7

$$$$
>  <binder>
Ac-SLEEEWAQIQCEVWGRGCPSESFYGWFERQL (cysteine pairing not given here) [S667]

>  <EC50 (FFC) [nM]>
0.21

$$$$
>  <binder>
Ac-SLEEEWAQIQCELWGRGCPSESFYDWFERQL (cysteine pairing not given here) [643]

>  <EC50 (FFC) [nM]>
0.097

$$$$

The reported EC50 (FFC) of the binder SLEEEWYQVECEVYGRGCPSESFYDWFERQL [691] was 25

Measured EC50 (FFC), SLEEEWAQVECEVYQRGCPSESFYDWFERQL [684] : 15

// EC50 (FFC) value for Ac-SLEEEWAQIECEVYGRGCPSEGFYNAIELLS (cysteine pairing not given here) [637] : 39
